ASSAY OVERVIEW: MM1S myeloma cell viability, profiling panel, resazurin fluorescence, basal, 24 h, PK04 Diversity Set (AID 1174);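 further: MM1S multiple myeloma cell line; test concentration not given here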
CONDITION DESCRIPTION: higher = more signal, called active from +8 up or from −8 down
Active and inactive are the calls of the source.
z-score values for the molecules below.
MEASURED QUANTITY: z-score

INSERT INTO measurements (molecule, measured_quantity, observed_measurement) VALUES
  ('C=CCN1C(=O)[C@]2(O[C@H](CCO)[C@@H]([Si](C)(C)c3ccc(OC)cc3)[C@@H]2C)c2cc(N3C(=O)c4cccc5cccc3c45)ccc21', 'z-score', '-8.43 (active)'),
  ('COCCOC(=O)N1C(=O)[C@@]2(c3ccccc31)[C@H](c1ccc(O)cc1)N1[C@H](c3ccccc3)[C@H](c3ccccc3)OC(=O)[C@H]1[C@@H]2C(=O)NC[C@H](O)c1ccccc1', 'z-score', '-0.397 (inactive)'),
  ('C=CCN(Cc1ccccc1)C(=O)C(c1cccs1)N(CCOCCO)C(=O)/C=C\C(=O)O (stereo not drawn)', 'z-score', '0.666 (inactive)');

###

ASSAY OVERVIEW: binders of probe aFGF10 on microarray, primary screen, stem cell growth factor project, biochemical, small-molecule microarray, fluorescence 635/667 (AID 1071);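 further: score merges 667 nm spot intensity and signal to noise from triplicate slides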
CONDITION DESCRIPTION: higher = more signal
MEASURED QUANTITY: composite z-score

INSERT INTO results (molecule, observed_measurement) VALUES
  ('COc1ccc([Si](C)(C)[C@H]2[C@H](CCn3cc([C@H](O)c4ccccc4)nn3)O[C@@]3(C(=O)N(Cc4cccc(N5CCOC5=O)c4)c4ccccc43)[C@@H]2C)cc1', 0.29),
  ('C[C@@]1([C@@H](NC(=O)c2ccccc2)c2ccc(-c3ccccc3)cc2)C[C@H]1C1CCCCC1', -0.227),
  ('CCOC(=O)C[C@H]1[C@H](OC(=O)c2cc3ccccc3oc2=O)[C@@H](NC(=O)Cc2ccc(OC)cc2)c2cc(OCCCO)ccc2N1C(=O)c1ccccc1', 0.379),
  ('CCOC(=O)[C@H]1C/C=C/C[C@H](C(=O)OCC)C(=O)O[C@H]2[C@@H](OC)O[C@H](CO)[C@@H](OC(=O)Nc3cccc(F)c3)[C@@H]2OC1=O', 0.39),
  ('COCCCN1C(=O)[C@@]2(c3ccc([N+](=O)[O-])cc3)CC(=O)N(C3CCCCC3)[C@@H]2c2ccc(CO)cc21', -0.118),
  ('CC(C)(C)OC(=O)CC[C@]12N=C(c3ccc(OCCCO)cc3)O[C@H]1c1ccccc1N(CCS(=O)(=O)c1ccccc1)C2=O', 0.137),
  ('O=C1c2ccccc2[C@@]2(Cc3ccccc3N(CC(F)(F)F)C2=O)[C@H](c2ccc(CO)cc2)N1Cc1ccccc1Cl', -0.0091),
  ('COc1cc2c(cc1OC)CN(C(=O)[C@H]1[C@@H]3C(=O)O[C@@H](c4ccccc4)[C@@H](c4ccccc4)N3[C@@H](c3ccc(O)cc3)[C@]13C(=O)Nc1ccc(C#CC4=CCCCC4)cc13)CC2', 1.24),
  ('COc1ccc([Si](C)(C)[C@@H]2[C@@H](CC(=O)N3Cc4ccccc4C[C@H]3CO)O[C@]3(C(=O)N(C)c4c(Br)cc(C)cc43)[C@H]2C)cc1', 0.441),
  ('COC(=O)[C@@]1(Cc2ccccc2)[C@H]2c3cc(C(=O)N(C)C)n(CCSCCO)c3C[C@H]2CN1C(=O)c1ccccc1', 0.689),
  ('COc1ccc(NN2C(C(O)c3ccc([N+](=O)[O-])cc3)C=CC3C(=O)N(C4CCCCC4)C(=O)C32)cc1 (centres undefined)', 0.389),
  ('CCOC(=O)C1=CCC(c2ccccc2)N(S(=O)(=O)CC[Si](C)(C)C)C1 (centres undefined)', -0.765),
  ('[N-]=[N+]=NCc1ccccc1[C@@H]1OC(c2ccc(OCCCO)cc2)=N[C@]1(CCS(=O)(=O)c1ccccc1)C(=O)NCCN1CCOCC1', 0.918),
  ('Cc1ccc(S[C@]2(C(=O)NCCN3CCOCC3)CC(=O)N(Cc3ccccc3Cl)[C@@H]2c2ccc(CO)cc2)cc1', 0.701);
